Reference source: patent US10934310B2

Molecular target: unphosphorylated-BTK kinase domain (UP-BTK), GST-tagged human BTK (389-659aa) (Homo sapiens (Human))
Sequence (Q06187 389-659): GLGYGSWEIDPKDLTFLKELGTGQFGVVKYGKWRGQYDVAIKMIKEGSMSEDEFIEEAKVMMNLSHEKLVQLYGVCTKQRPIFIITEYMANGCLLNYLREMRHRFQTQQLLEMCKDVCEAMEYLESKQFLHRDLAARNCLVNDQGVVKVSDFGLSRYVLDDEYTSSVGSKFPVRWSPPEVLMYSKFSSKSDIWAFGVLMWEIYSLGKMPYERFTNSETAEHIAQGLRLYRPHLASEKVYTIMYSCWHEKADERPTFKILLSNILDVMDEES
Test: BTK Kinase Lanthascreen Binding Assay
Conditions: read-out: BTK_I_binding pIC50 (converted)
Consider the following compounds and their measured IC50 readings.

CCC(=O)N[C@@H]1CCC[C@@H]1NC(=O)c1sc2nccc3c2c1NC(=O)N3c1ccnc(-c2ccccc2)c1 : > 1000 nM
C=CC(=O)N[C@@H]1CCC[C@@H](NC(=O)c2sc3nccc4c3c2NC(=O)N4c2ccc(Oc3ccccc3)cn2)C1 (racemic) : 36.3 nM
C=CC(=O)N[C@H]1CC[C@@H](NC(=O)c2sc3nccc4c3c2NC(=O)N4c2ccnc(-c3ccccc3)c2)C1 : > 1000 nM

Here is another compound to look at.
According to the records, this compound C=CC(=O)N[C@H]1CCCC[C@@H]1NC(=O)c1sc2nccc3c2c1NC(=O)N3c1ccc(OC(C)C)cc1C (single isomer, unassigned) displays IC50 of > 1000 nM
